species: Rattus norvegicus; assay: Open TG-GATES - Regimen: Daily Repeat; type: toxicity, organism-based, Sprague-Dawley; set-up: regimen Daily Repeat, gender Male, age 6 weeks; conditions: in vivo, po, 0 mg/kg, […], tissue Plasma, route gavage, dose level Control, time 7 day
MEASUREMENT LABEL: LDH (IU/L)
Write it as a number; the unit IU/L goes unstated.

Example cases with answers are listed next.
CN(C)CCN(Cc1cccs1)c1ccccn1	164.4
COc1ccc2[nH]c([S+]([O-])Cc3ncc(C)c(OC)c3C)nc2c1 (centres undefined)	225.8
CN(C)CCCN1c2ccccc2CCc2ccccc21	114

Look up LDH for this compound: `O=C(CCCN1CCC(O)(c2ccc(Cl)cc2)CC1)c1ccc(F)cc1`
93

----------
organism: Rattus norvegicus; experiment: Open TG-GATES - Regimen: Single; type: toxicity, organism-based, Sprague-Dawley; parameters: regimen Single, gender Male, age 6 weeks; settings: in vivo, po, 100 mg/kg, 24 h, tissue Blood, route gavage, dose level Low
Below: a set of entries, each annotated with reported Neu.

NC(N)=Nc1nc(CSCCC(N)=NS(N)(=O)=O)cs1	16.2%
CCOC(=O)CCC(=O)O[C@H]1[C@H](O[C@@H]2[C@@H](C)[C@H](O[C@H]3C[C@@](C)(OC)[C@@H](O)[C@H](C)O3)[C@@H](C)C(=O)O[C@H](CC)[C@@](C)(O)[C@H](O)[C@@H](C)C(=O)[C@H](C)C[C@@]2(C)O)O[C@H](C)C[C@@H]1N(C)C [ERYTHROMYCIN ETHYLSUCCINATE]	8.2%

If you can, please state the reported Neu value of `COC1=CC(=O)C[C@@H](C)[C@]12Oc1c(Cl)c(OC)cc(OC)c1C2=O` .
17.4%

State the recorded Neu for this entry: COc1ccc2[nH]c([S+]([O-])Cc3ncc(C)c(OC)c3C)nc2c1 (centres undefined)
12%

----------
species: Rattus norvegicus; assay: Open TG-GATES - Regimen: Single; assay type: toxicity, organism-based, Sprague-Dawley; set-up: regimen Single, gender Male, age 6 weeks; settings: in vivo, po, 0 mg/kg, 9 h, tissue Kidney, route gavage, dose level Control
Listed here: items and their measured KIDNEY_TOTAL.

Look over these answered cases.
CCCNC(=O)NS(=O)(=O)c1ccc(Cl)cc1 [CHLORPROPAMIDE]	1.8 g
CN1C(=O)CN=C(c2ccccc2)c2cc(Cl)ccc21	2 g
CN(C)CCCN1c2ccccc2CCc2ccccc21	1.8 g
Cc1ccc(C)c(OCCCC(C)(C)C(=O)O)c1	1.8 g
NC(N)=Nc1nc(CSCCC(N)=NS(N)(=O)=O)cs1	2 g

Now for a further compound.
Quick one: KIDNEY_TOTAL for `CN(C)CCN(Cc1cccs1)c1ccccn1` ?
1.6 g

----------
species: Rattus norvegicus; experiment: Open TG-GATES - Regimen: Daily Repeat; assay type: toxicity, organism-based, Sprague-Dawley; parameters: regimen Daily Repeat, gender Male, age 6 weeks; settings: in vivo, po, 1000 mg/kg, […], tissue Plasma, route gavage, dose level High, time 14 day
Each entry below carries its recorded GLC.
Expressed in mg/dL, but write only the number.

Worked examples follow.
CC(C)OC(=O)C(C)(C)Oc1ccc(C(=O)c2ccc(Cl)cc2)cc1 [FENOFIBRATE]	170.2
COc1ccc2[nH]c([S+]([O-])Cc3ncc(C)c(OC)c3C)nc2c1 (stereo unspecified)	191.4
CCOC(=O)CCC(=O)O[C@H]1[C@H](O[C@@H]2[C@@H](C)[C@H](O[C@H]3C[C@@](C)(OC)[C@@H](O)[C@H](C)O3)[C@@H](C)C(=O)O[C@H](CC)[C@@](C)(O)[C@H](O)[C@@H](C)C(=O)[C@H](C)C[C@@]2(C)O)O[C@H](C)C[C@@H]1N(C)C [ERYTHROMYCIN ETHYLSUCCINATE]	187

// lookup GLC for `COC1=CC(=O)C[C@@H](C)[C@]12Oc1c(Cl)c(OC)cc(OC)c1C2=O`
205.2

Any idea what its GLC is? The compound is CCOc1ccc(NC(=O)CC(C)O)cc1 (stereo unspecified)
170.4

Report GLC for `NC(N)=Nc1nc(CSCCC(N)=NS(N)(=O)=O)cs1` please.
196.6

----------
species on record: Rattus norvegicus; assay: Open TG-GATES - Regimen: Single; assay type: toxicity, organism-based, Sprague-Dawley; set-up: regimen Single, gender Male, age 6 weeks; settings: in vivo, po, 30 mg/kg, 6 h, tissue Plasma, route gavage, dose level Middle
Catalogue of IP values
Please respond with the number in mg/dL and leave the unit unwritten.

CC1=C(/C=C/C(C)=C/C=C/C(C)=C/CO)C(C)(C)CCC1	9.8
CN(C)CCN(Cc1cccs1)c1ccccn1	9.2
CN(C)CCCN1c2ccccc2CCc2ccc(Cl)cc21	9.9

GET /values?readout=IP&item= `CN(C)CCCN1c2ccccc2CCc2ccccc21`
9.8

----------
Parameter IP: see the listing below.
species: Rattus norvegicus; assay: Open TG-GATES - Regimen: Daily Repeat; format: toxicity, organism-based, Sprague-Dawley; set-up: regimen Daily Repeat, gender Male, age 6 weeks; details: in vivo, po, 10 mg/kg, […], tissue Plasma, route gavage, dose level Low, time 28 day
Give just the numeric value; mg/dL need not be written.

CC(C)OC(=O)C(C)(C)Oc1ccc(C(=O)c2ccc(Cl)cc2)cc1 [FENOFIBRATE]	7.2
CC1=C(/C=C/C(C)=C/C=C/C(C)=C/CO)C(C)(C)CCC1	5.8
CN(C)CCCN1c2ccccc2CCc2ccccc21	6.9

// IP lookup, key: `CN(C)CCN(Cc1cccs1)c1ccccn1`
6.5

----------
species on record: Rattus norvegicus; test: Open TG-GATES - Regimen: Daily Repeat; type: toxicity, organism-based, Sprague-Dawley; set-up: regimen Daily Repeat, gender Male, age 6 weeks; settings: in vivo, po, 0 mg/kg, […], tissue Blood, route gavage, dose level Control, time 7 day
compounds and their reported MCHC
// return numeric value only (unit: %, not printed)

CCOc1ccc(NC(=O)CC(C)O)cc1 (stereo unspecified)	33.7
NNC(=O)c1ccncc1	33.4
COc1ccc2[nH]c([S+]([O-])Cc3ncc(C)c(OC)c3C)nc2c1 (stereo unspecified)	34.5

Any idea what its MCHC is? The compound is `CC1=C(/C=C/C(C)=C/C=C/C(C)=C/CO)C(C)(C)CCC1`
35.1

Which MCHC is reported for this compound? CCCNC(=O)NS(=O)(=O)c1ccc(Cl)cc1 [CHLORPROPAMIDE]
33.4

For the compound `CN(C)CCCN1c2ccccc2CCc2ccccc21` , what MCHC is on record?
32.9

----------
species: Rattus norvegicus; assay: Open TG-GATES - Regimen: Daily Repeat; assay type: toxicity, organism-based, Sprague-Dawley; set-up: regimen Daily Repeat, gender Male, age 6 weeks; settings: in vivo, po, 0 mg/kg, […], tissue Plasma, route gavage, dose level Control, time 7 day
MEASUREMENT LABEL: TC (mg/dL)
Write it as a number; the unit mg/dL goes unstated.

CN(C)CCN(Cc1cccs1)c1ccccn1	72.6
NC(N)=Nc1nc(CSCCC(N)=NS(N)(=O)=O)cs1 [FAMOTIDINE]	78
CCCNC(=O)NS(=O)(=O)c1ccc(Cl)cc1 [CHLORPROPAMIDE]	82

Now let's try a different one.
Looking for the measured TC of O=C(CCCN1CCC(O)(c2ccc(Cl)cc2)CC1)c1ccc(F)cc1 [HALOPERIDOL] , can you help?
83

----------
species: Rattus norvegicus; experiment: Open TG-GATES - Regimen: Single; format: toxicity, organism-based, Sprague-Dawley; design: regimen Single, gender Male, age 6 weeks; conditions: in vivo, po, 1000 mg/kg, 9 h, tissue Blood, route gavage, dose level High
MEASUREMENT LABEL: MCH (pg)
Number only, in pg; omit the unit.

COC1=CC(=O)C[C@@H](C)[C@]12Oc1c(Cl)c(OC)cc(OC)c1C2=O [GRISEOFULVIN]	21.5
CCOC(=O)CCC(=O)O[C@H]1[C@H](O[C@@H]2[C@@H](C)[C@H](O[C@H]3C[C@@](C)(OC)[C@@H](O)[C@H](C)O3)[C@@H](C)C(=O)O[C@H](CC)[C@@](C)(O)[C@H](O)[C@@H](C)C(=O)[C@H](C)C[C@@]2(C)O)O[C@H](C)C[C@@H]1N(C)C [ERYTHROMYCIN ETHYLSUCCINATE]	20.8
NC(N)=Nc1nc(CSCCC(N)=NS(N)(=O)=O)cs1 [FAMOTIDINE]	22

# lookup: MCH of COc1ccc2[nH]c([S+]([O-])Cc3ncc(C)c(OC)c3C)nc2c1 (centres undefined) [OMEPRAZOLE]
21.3

----------
species on record: Rattus norvegicus; assay: Open TG-GATES - Regimen: Daily Repeat; format: toxicity, organism-based, Sprague-Dawley; design: regimen Daily Repeat, gender Male, age 6 weeks; conditions: in vivo, po, 1000 mg/kg, […], tissue Plasma, route gavage, dose level High, time 28 day
Decide using LDH: a value greater than or equal to 100 IU/L is 1, a smaller one is -1.

Some solved cases for reference:
COC1=CC(=O)C[C@@H](C)[C@]12Oc1c(Cl)c(OC)cc(OC)c1C2=O	1
CCOC(=O)CCC(=O)O[C@H]1[C@H](O[C@@H]2[C@@H](C)[C@H](O[C@H]3C[C@@](C)(OC)[C@@H](O)[C@H](C)O3)[C@@H](C)C(=O)O[C@H](CC)[C@@](C)(O)[C@H](O)[C@@H](C)C(=O)[C@H](C)C[C@@]2(C)O)O[C@H](C)C[C@@H]1N(C)C [ERYTHROMYCIN ETHYLSUCCINATE]	1
NC(N)=Nc1nc(CSCCC(N)=NS(N)(=O)=O)cs1	1
CCOc1ccc(NC(=O)CC(C)O)cc1 (stereo unspecified)	-1
COc1ccc2[nH]c([S+]([O-])Cc3ncc(C)c(OC)c3C)nc2c1 (stereo unspecified)	1

// switching to the query molecule
Is LDH for CC(C)OC(=O)C(C)(C)Oc1ccc(C(=O)c2ccc(Cl)cc2)cc1 [FENOFIBRATE] at or above 100 IU/L?
1
